- Test system: Yap1 mRNA
- assay.remarks: Antisense inhibition of human Yap1 in A-431 cells by cEt gapmers, single dose (Example 4, RTS4814)
- Type: cell-based
- condition.description: Table 14; A-431 cells, 5,000 cells per well, free uptake, 2,000 nM, approximately 48 hours; RTS4814; normalized to RIBOGREEN; Yap1 mRNA relative to untreated control; * = targets amplicon region of primer probe set
Strand notation (5' to 3'): a small letter for the sugar, then the base; units joined by * are phosphorothioate-linked, units joined directly phosphodiester-linked; [ ] holds rarer units or linkages, { } end groups; capitals alone tell only the bases. k = constrained ethyl (cEt); [5mC] = 5-methylcytosine; d = 2'-deoxy (DNA)
reported.endpoint: YAP1 (% UTC)

>>> df
                                   substance  recorded_result
 0  1076160 (kT*kT*kA*dT*dA*d[5mC]*dT*dA*dG*dT*dA*d[5mC]*dG*kG*k[5mC]*kA; antisense) [Compound 1076160]               20
 1  1075808 (kG*k[5mC]*kA*dA*dT*dA*dG*dA*dG*dT*dA*dA*d[5mC]*k[5mC]*kA*kG; antisense) [Compound 1075808]                3
 2  1076480 (antisense kG*kT*kA*dA*dA*dT*dA*dT*d[5mC]*d[5mC]*dA*dT*dT*kA*k[5mC]*k[5mC]) [Compound 1076480]               72
 3  1076032 (kT*kA*kT*dA*dA*dT*dT*dT*d[5mC]*d[5mC]*d[5mC]*dT*dG*kA*kT*k[5mC]; antisense) [Compound 1076032]              105
 4  1076096 (kA*kA*kT*dA*dA*dT*dA*dA*dA*d[5mC]*dG*dA*dT*kT*k[5mC]*kT; antisense) [Compound 1076096]               71
 5  1075328 (k[5mC]*kT*k[5mC]*dG*d[5mC]*dA*dA*dA*dG*d[5mC]*d[5mC]*dT*d[5mC]*kT*kT*k[5mC]; antisense) [Compound 1075328]               21
 6  1075040 (antisense kT*kT*kA*dT*dA*dA*dA*dG*dA*dG*dG*d[5mC]*dT*k[5mC]*kA*kG) [Compound 1075040]               10
 7  1075424 (antisense kT*kT*kA*dT*dT*dA*dA*dT*d[5mC]*d[5mC]*dT*dG*dT*k[5mC]*k[5mC]*kA) [Compound 1075424]               18
 8  1075072 (antisense kT*k[5mC]*k[5mC]*dG*dG*dG*dT*dA*dA*dA*dT*dA*dT*k[5mC]*kT*k[5mC]) [Compound 1075072]               37
 9  1075904 (kG*kT*kA*dT*dA*dG*dG*dA*dT*d[5mC]*dT*dA*d[5mC]*kT*kA*kA; antisense) [Compound 1075904]               51
10  1075840 (k[5mC]*k[5mC]*kT*dA*dA*dA*dA*dT*dA*dG*dG*dA*dA*kT*kG*k[5mC]; antisense) [Compound 1075840]               89
11  1074496 (kA*kA*kT*dA*dA*d[5mC]*d[5mC]*dA*dT*d[5mC]*d[5mC]*d[5mC]*dA*kA*kG*k[5mC]; antisense) [Compound 1074496]               69
